- Test System: UniProt:Q6PH85
- Sequence (Q6PH85 whole entry, the tested form may be a part): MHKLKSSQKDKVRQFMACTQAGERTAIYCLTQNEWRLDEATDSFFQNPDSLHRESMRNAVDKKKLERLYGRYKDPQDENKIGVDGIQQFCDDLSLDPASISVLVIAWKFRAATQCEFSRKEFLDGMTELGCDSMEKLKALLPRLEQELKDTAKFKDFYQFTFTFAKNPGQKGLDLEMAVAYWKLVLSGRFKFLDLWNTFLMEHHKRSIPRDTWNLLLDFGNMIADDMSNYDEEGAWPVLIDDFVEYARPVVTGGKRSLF
- Procedure Text: Binding affinity to N-terminal GST tagged recombinant DCN2 (unknown origin) (62 to 259 residues) expressed in Escherichia coli BL21(DE3) assessed as reduction in DCN1-FAM-labelled N-terminal acetylated UBE2M (1 to 21 residues) protein-protein interaction after 30 mins by HTRF assay
Measured Parameter: pKi
pKi is a log-scale quantity: -log10 of the concentration expressed in molar.

Given item "C#CCSc1nc(Sc2nccs2)c(C#N)c(-c2ccc(C)cc2)n1" , the value recorded as its pKi is 7.18

----------
- Test System: DCN1-like protein 5 (Homo sapiens, UniProt Q9BTE7)
- Sequence (Q9BTE7 whole entry, the tested form may be a part): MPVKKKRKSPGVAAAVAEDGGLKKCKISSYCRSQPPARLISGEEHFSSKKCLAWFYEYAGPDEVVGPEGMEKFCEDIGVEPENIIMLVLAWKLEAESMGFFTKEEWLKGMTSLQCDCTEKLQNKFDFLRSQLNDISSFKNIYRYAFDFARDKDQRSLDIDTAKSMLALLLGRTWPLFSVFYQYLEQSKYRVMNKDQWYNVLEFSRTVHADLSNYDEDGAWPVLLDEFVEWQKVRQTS
- Procedure Text: Binding affinity to N-terminal GST tagged recombinant DCN5 (unknown origin) (47 to 237 residues) expressed in Escherichia coli BL21(DE3) assessed as reduction in DCN1/FAM-labelled N-terminal acetylated UBE2M (1 to 21 residues) protein-protein interaction after 30 mins by HTRF assay
Measured Parameter: pKi
In simple prose, pKi is minus the logarithm base ten of a concentration in moles per litre.

Short answer for "C#CCSc1nc(Sc2nccs2)c(C#N)c(-c2ccc(C)cc2)n1" : pKi was 5.67

----------
Assign pIC50 to each entry below.
- Test system: MCF7
- Procedure Text: Antiproliferative activity against human MCF7 after 72 hrs by MTT assay
- Type: functional, cell-based
- Study Conditions: MCF7, 72 h
A value of pIC50 is the negative decimal logarithm of a concentration given in moles per litre.

Form: compound = "C#CCSc1nc(Sc2nccs2)c(C#N)c(-c2ccc(Br)cc2)n1" ; pIC50 = 4.93

So for "C#CCSc1nc(Sc2nnnn2CCN(C)C)c(C#N)c(-c2cccc(Cl)c2)n1" , the logged pIC50 turned out to be 5.39

Looking up "C#CCSc1nc(Sc2nccs2)c(C#N)c(-c2ccc(C)cc2)n1" , I found its pIC50 recorded as 5.66

For this compound ( "C#CCSc1nc(Sc2nccs2)c(C#N)c(-c2ccc(Cl)cc2)n1" ), measured pIC50 is 5.49

Given item C=CC(=O)Nc1ccccc1CN(C(=O)Nc1cccc(C(F)(F)F)c1)C1CCN(C(C)CCC)CC1 (configuration not stated) , the value recorded as its pIC50 is 4.99

Measured pIC50 of "C#CCSc1nc(Sc2nnnn2CCN(C)C)c(C#N)c(-c2ccc(Cl)cc2)n1" : 5.21

----------
- Test System: DCN1-like protein 1 (Homo sapiens, UniProt Q96GG9)
- Sequence (Q96GG9 whole entry, the tested form may be a part): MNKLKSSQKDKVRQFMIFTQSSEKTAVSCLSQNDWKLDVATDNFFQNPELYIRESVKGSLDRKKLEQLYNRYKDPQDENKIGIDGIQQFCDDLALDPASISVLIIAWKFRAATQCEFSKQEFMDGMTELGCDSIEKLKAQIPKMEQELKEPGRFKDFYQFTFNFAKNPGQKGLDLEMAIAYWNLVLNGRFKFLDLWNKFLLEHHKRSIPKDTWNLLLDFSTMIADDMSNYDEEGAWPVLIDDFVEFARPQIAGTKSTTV
- Procedure Text: Binding affinity to N-terminal GST tagged recombinant human DCN1 (58 to 259 residues) expressed in Escherichia coli BL21(DE3) assessed as reduction in DCN1-FAM-labelled N-terminal acetylated UBE2M (1 to 21 residues) protein-protein interaction after 30 mins by HTRF assay
pIC50: −log10 of the molar value.
Would you kindly list pIC50 for each of these compounds?

Given item "C#CCSc1nc(Sc2nnc(C)s2)c(C#N)c(-c2cc(OC)c(OC)c(OC)c2)n1" , the value recorded as its pIC50 is 6.87

Consider "C#CCSc1nc(-c2cc(OC)c(OC)c(OC)c2)c(C#N)c(N2CCNCC2)n1" . Its measured pIC50 is < 5.30

Record summary for "C#CCSc1nc(Nc2ccc(OC)cc2)c(C#N)c(-c2cc(OC)c(OC)c(OC)c2)n1" : reported pIC50 = < 5.00

Measured pIC50 of "C#CCSc1nc(Sc2ccccn2)c(C#N)c(-c2cc(OC)c(OC)c(OC)c2)n1" : < 5.60

----------
- Test System: DCN1-like protein 4 (Homo sapiens)
- Sequence (Q92564 whole entry): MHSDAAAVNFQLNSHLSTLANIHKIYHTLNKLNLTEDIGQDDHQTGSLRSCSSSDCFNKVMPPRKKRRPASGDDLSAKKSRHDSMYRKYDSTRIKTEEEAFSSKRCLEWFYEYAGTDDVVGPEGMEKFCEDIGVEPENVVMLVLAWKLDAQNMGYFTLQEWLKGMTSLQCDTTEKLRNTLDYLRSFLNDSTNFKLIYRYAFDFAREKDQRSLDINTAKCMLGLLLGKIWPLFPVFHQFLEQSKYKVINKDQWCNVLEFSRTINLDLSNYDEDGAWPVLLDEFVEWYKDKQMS
- Procedure Text: Binding affinity to N-terminal GST tagged recombinant DCN4 (unknown origin) (102 to 292 residues) expressed in Escherichia coli BL21(DE3) assessed as reduction in DCN1/FAM-labelled N-terminal acetylated UBE2M (1 to 21 residues) protein-protein interaction after 30 mins by HTRF assay
Measured Parameter: Ki

Per the records, this molecule ( "C#CCSc1nc(Sc2nccs2)c(C#N)c(-c2ccc(C)cc2)n1" ) has Ki equal to 807 nM

----------
- Test System: UniProt:Q96GG9
- Procedure Text: Binding affinity to N-terminal GST tagged recombinant human DCN1 (58 to 259 residues) expressed in Escherichia coli BL21(DE3) assessed as reduction in DCN1-FAM-labelled N-terminal acetylated UBE2M (1 to 21 residues) protein-protein interaction after 30 mins by HTRF assay
Hi there, I'd appreciate the recorded IC50 for every entry that follows.
Give a bare numeral; the unit nM is implied.

For "C#CCSc1nc(Sc2nnnn2CCN(C)C)c(C#N)c(-c2ccc(C)cc2)n1" the molecule record lists IC50 as 120

Measured IC50, "C#CCSc1nc(Sc2nnnn2CCN(C)C)c(C#N)c(-c2cc(OC)c(OC)c(OC)c2)n1" : 199

Looking up "C#CCSc1nc(Sc2nnnn2CCN(C)C)c(C#N)c(-c2ccc3oc(=O)ccc3c2)n1" , I see its IC50 listed as 815

Field IC50 (entry "C#CCSc1nc(Sc2nnnn2C)c(C#N)c(-c2ccc(Cl)cc2)n1" ) reads 102

What the record says about "C#CCSc1nc(Sc2nccs2)c(C#N)c(-c2ccc3oc(=O)ccc3c2)n1" : IC50 is 202

Looking up "C#CCSc1nc(Sc2nnnn2C)c(C#N)c(-c2cc(OC)c(OC)c(OC)c2)n1" , I see its IC50 listed as 250

Notebook: "C#CCSc1nc(Sc2nccs2)c(C#N)c(-c2ccc(Br)cc2)n1" , IC50 read as 189

According to the records, this molecule "C#CCSc1nc(Sc2nnnn2C)c(C#N)c(-c2ccc(Cl)c(Cl)c2)n1" displays IC50 of 339

Recorded IC50 (molecule "C#CCSc1nc(Sc2ccc(N)s2)c(C#N)c(-c2cc(OC)c(OC)c(OC)c2)n1" ): 66

For "C#CCSc1nc(Sc2nccs2)c(C#N)c(-c2ccc(Cl)c(Cl)c2)n1" the molecule record lists IC50 as 112

IC50 for "C#CCSc1nc(Sc2nccs2)c(C#N)c(-c2ccc(Cl)cc2)n1" is 96

The recorded IC50 for entry "C#CCSc1nc(Sc2nnc(N)s2)c(C#N)c(-c2cc(OC)c(OC)c(OC)c2)n1" equals 107

What the record says about "C#CCSc1nc(Sc2nccs2)c(C#N)c(-c2ccncc2)n1" : IC50 is 1060

In plain terms, "C#CCSc1nc(Sc2nnnn2C)c(C#N)c(-c2ccc3oc(=O)ccc3c2)n1" has a documented IC50 of 820

Value of measured IC50 for the entry "C#CCSc1nc(Sc2nnnn2CCN(C)C)c(C#N)c(-c2ccc(Cl)c(Cl)c2)n1" : 172

Sample "C#CCSc1nc(Sc2nnnn2CCN(C)C)c(C#N)c(-c2cccc(Cl)c2)n1" ; IC50 observed: 380

For "C#CCSc1nc(Sc2nccs2)c(C#N)c(-c2ccc(C)cc2)n1" the molecule record lists IC50 as 15.7

The molecule identified as "C#CCSc1nc(Sc2nnnn2CCN(C)C)c(C#N)c(-c2ccc(Cl)cc2)n1" registered its IC50 at 123

For reference, reported IC50 for "C#CCSc1nc(Sc2nccs2)c(C#N)c(-c2cc(OC)c(OC)c(OC)c2)n1" stands at 77

"C#CCSc1nc(Sc2nccs2)c(C#N)c(-c2cccc(Cl)c2)n1" has a reported IC50 of 140

Item: "C#CCSc1nc(Sc2nnnn2C)c(C#N)c(-c2cccc(OC)c2)n1" | IC50: 1020

Quick note, IC50 for "C#CCSc1nc(Sc2nnnn2C)c(C#N)c(-c2cccc(Cl)c2)n1" landed at 291

Note to self: IC50 recorded for "C#CCSc1nc(Sc2nnnn2C)c(C#N)c(-c2ccc(C(C)C)cc2)n1" was 369

----------
Please provide measured IC50 for the entries that follow.
- System: PC-9
- Procedure Text: Antiproliferative activity against human PC9 by MTT assay
- Assay type: functional, cell-based
Note: unit µM is implicit; provide only the numeric part.

What the record says about "C#CCSc1nc(Sc2nccs2)c(C#N)c(-c2ccc(Br)cc2)n1" : IC50 is 12.1

The compound "C#CCSc1nc(Sc2nnnn2CCN(C)C)c(C#N)c(-c2cccc(Cl)c2)n1" showed IC50 equal to 6.48

IC50 in this record for "C#CCSc1nc(Sc2nnnn2CCN(C)C)c(C#N)c(-c2ccc(Cl)cc2)n1" : 5.3

The recorded IC50 for "C#CCSc1nc(Sc2nccs2)c(C#N)c(-c2ccc(Cl)cc2)n1" is 4.13

Looking up C=CC(=O)Nc1ccccc1CN(C(=O)Nc1cccc(C(F)(F)F)c1)C1CCN(C(C)CCC)CC1 (configuration not stated) , I see its IC50 listed as 5.59

Quick note, IC50 for "C#CCSc1nc(Sc2nccs2)c(C#N)c(-c2ccc(C)cc2)n1" landed at 1.11
